# pEC50 per entry
target: SST2 (Homo sapiens)
Construct: host or cells: PathHunter CHO-K1 SST2 cells
Sequence (P30874 whole entry): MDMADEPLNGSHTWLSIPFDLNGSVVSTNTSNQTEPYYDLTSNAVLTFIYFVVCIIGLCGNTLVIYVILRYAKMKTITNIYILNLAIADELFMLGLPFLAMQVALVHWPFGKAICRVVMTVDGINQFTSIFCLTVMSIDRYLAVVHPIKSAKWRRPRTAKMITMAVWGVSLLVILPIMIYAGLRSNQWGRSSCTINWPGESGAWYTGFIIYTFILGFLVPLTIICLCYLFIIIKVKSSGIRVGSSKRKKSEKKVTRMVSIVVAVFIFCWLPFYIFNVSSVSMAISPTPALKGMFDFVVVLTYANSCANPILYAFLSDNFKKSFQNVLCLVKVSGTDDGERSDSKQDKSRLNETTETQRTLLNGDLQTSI
test-description: PathHunter CHO-K1 SST2 internalization assay
Format: cell-based
condition-details: PathHunter CHO-K1 SST2, 90 min; read-out: Internalization EC50
A value of pEC50 is the negative decimal logarithm of a concentration given in moles per litre.

Item CC[C@H](C)[C@@H]([C@@H](CC(=O)N1CCC[C@H]1[C@H](OC)[C@@H](C)C(=O)N[C@H](C)[C@@H](O)c1ccccc1)OC)N(C)C(=O)[C@@H](NC(=O)[C@H](C(C)C)N(C)C(=O)OCc1ccc(NC(=O)[C@H](C)NC(=O)[C@@H](NC(=O)[C@H](CS(=O)(=O)O)NC(=O)CCOCCOCCOCCOCCC(=O)NCCNc2ncc(-c3cc(C)cc(F)c3)c(N3CCC(N)CC3)c2-c2nc3ccc(Cl)cc3[nH]2)C(C)C)cc1C(=O)NCCN)C(C)C [Compound 158] with SST2 (Homo sapiens) - pEC50? 7.92

Now let's try a different one.
Item CC[C@H](C)[C@@H]([C@@H](CC(=O)N1CCC[C@H]1[C@H](OC)[C@@H](C)C(=O)N[C@H](C)[C@@H](O)c1ccccc1)OC)N(C)C(=O)[C@@H](NC(=O)[C@H](C(C)C)N(C)C(=O)OCc1ccc(NC(=O)[C@H](CCCNC(N)=O)NC(=O)[C@@H](NC(=O)CCCCC(=O)NCCNc2ncc(-c3cc(C)cc(F)c3)c(N3CCC(N)CC3)c2-c2nc3ccc(Cl)cc3[nH]2)C(C)C)c(O[C@@H]2O[C@H](C(=O)O)[C@@H](O)[C@H](O)[C@H]2O)c1)C(C)C [Compound 63] with SST2 (Homo sapiens) - pEC50? 7.80

###

target: SST2 (Homo sapiens)
Construct: host or cells: PathHunter CHO-K1 SST2 cells
test-description: PathHunter CHO-K1 SST2 internalization assay
Type: cell-based
condition-details: PathHunter CHO-K1 SST2, 90 min; read-out: Internalization EC50
readout: pEC50
A value of pEC50 is the negative decimal logarithm of a concentration given in moles per litre.

Item CC[C@@H](C)[C@H]([C@H](CC(=O)N1CCC[C@@H]1[C@@H](OC)[C@H](C)C(=O)N[C@@H](C)[C@H](O)c1ccccc1)OC)N(C)C(=O)C(NC(=O)[C@@H](C(C)C)N(C)C(=O)OCc1ccc(NC(=O)[C@H](CCCNC(N)=O)NC(=O)[C@@H](NC(=O)CCOCCNC(=O)[C@H](CS(=O)(=O)O)NC(=O)CCOCCOCCOCCOCCC(=O)NCCNc2ncc(-c3cc(C)cc(F)c3)c(N3CCC(N)CC3)c2-c2nc3ccc(Cl)cc3[nH]2)C(C)C)cc1)C(C)C (stereo partly shown) with SST2 (Homo sapiens) - pEC50? 7.76

###

target: SST2 (Homo sapiens)
Construct: host or cells: PathHunter CHO-K1 SST2 cells
test-description: PathHunter CHO-K1 SST2 internalization assay
Assay type: cell-based
condition-details: PathHunter CHO-K1 SST2, 90 min; read-out: Internalization EC50
Starred links: 1 amine or outer side, 2 acyl side, 3 side chain; linkers in the order of their positions; H or OH if unused. Non-standard residues stand in square brackets, D forms with d. Residues, ends and D or L forms follow the SMILES beside them. *: point of attachment. X4 = Cc1cc(F)cc(-c2cnc(NCCNC(=O)CCOCCOCCOCCOCCC(=O)*)c(-c3nc4ccc(Cl)cc4[nH]3)c2N2CCC(N)CC2)c1; Dolaproine = CO[C@@H]([C@@H]1CCCN1)[C@@H](C)C(=O)O; Dil = CC[C@H](C)[C@H](NC)[C@@H](CC(=O)O)OC; PABC = O=C(OCc1ccc(N[*:1])cc1)[*:2]; X2 = C[C@@H](N*)[C@@H](O)c1ccccc1; Cit = NC(=O)NCCC[C@H](N)C(=O)O; NMeV = CN[C@H](C(=O)O)C(C)C
# pEC50 per entry
A value of pEC50 is the negative decimal logarithm of a concentration given in moles per litre.

Some compounds with recorded pEC50:
Can you look up the measured pEC50 of CC[C@H](C)[C@@H]([C@@H](CC(=O)N1CCC[C@H]1[C@H](OC)[C@@H](C)C(=O)N[C@H](C)[C@@H](O)c1ccccc1)OC)N(C)C(=O)[C@@H](NC(=O)[C@H](C(C)C)N(C)C(=O)OCc1ccc(NC(=O)[C@H](CCCNC(N)=O)NC(=O)[C@@H](NC(=O)CN2CCN(CC(=O)O)CCN(CC(=O)NCCNc3ncc(-c4cc(C)cc(F)c4)c(N4CCC(N)CC4)c3-c3nc4ccc(Cl)cc4[nH]3)CC2)C(C)C)cc1)C(C)C [Compound 33] for me? 7.46

Can you look up the measured pEC50 of CC[C@H](C)[C@@H]([C@@H](CC(=O)N1CCC[C@H]1[C@H](OC)[C@@H](C)C(=O)N[C@H](C)[C@@H](O)c1ccccc1)OC)N(C)C(=O)[C@@H](NC(=O)[C@H](C(C)C)N(C)C(=O)OCc1ccc(NC(=O)[C@H](CCCNC(N)=O)NC(=O)[C@@H](NC(=O)[C@H](CCC(=O)O)NC(=O)CCOCCOCCOCCOCCC(=O)NCCNc2ncc(-c3cc(C)cc(F)c3)c(N3CCC(N)CC3)c2-c2nc3ccc(Cl)cc3[nH]2)C(C)C)cc1)C(C)C [Compound 52] for me? 8.04

Can you look up the measured pEC50 of CC[C@H](C)[C@@H]([C@@H](CC(=O)N1CCC[C@H]1[C@H](OC)[C@@H](C)C(=O)N[C@H](C)[C@@H](O)c1ccccc1)OC)N(C)C(=O)[C@@H](NC(=O)[C@H](C(C)C)N(C)C(=O)OCc1ccc(NC(=O)[C@H](CCCNC(N)=O)NC(=O)[C@@H](NC(=O)CCOCCC(=O)NCCNc2ncc(-c3cc(C)cc(F)c3)c(N3CCC(N)CC3)c2-c2nc3ccc(Cl)cc3[nH]2)C(C)C)cc1C(N)=O)C(C)C [Compound 122] for me? 8.42

Can you look up the measured pEC50 of CC[C@H](C)[C@@H]([C@@H](CC(=O)N1CCC[C@H]1[C@H](OC)[C@@H](C)C(=O)N[C@H](C)[C@@H](O)c1ccccc1)OC)N(C)C(=O)[C@@H](NC(=O)[C@H](C(C)C)N(C)C(=O)OCc1ccc(NC(=O)[C@H](C)NC(=O)[C@@H](NC(=O)CCCC(=O)N(C)CC(=O)NCCNc2ncc(-c3cc(C)cc(F)c3)c(N3CCC(N)CC3)c2-c2nc3ccc(Cl)cc3[nH]2)C(C)C)c(O[C@@H]2O[C@H](C(=O)O)[C@@H](O)[C@H](O)[C@H]2O)c1)C(C)C [Compound 140] for me? 8.74

Can you look up the measured pEC50 of COc1cc2cc(c1Cl)N(C)C(=O)C[C@H](OC(=O)[C@H](C)N(C)C(=O)CCSSCCNC(=O)CCOCCNC(=O)C[C@@H](N)C(=O)NCCNc1ncc(-c3cc(C)cc(F)c3)c(N3CCC(N)CC3)c1-c1nc3ccc(Cl)cc3[nH]1)[C@]1(C)O[C@H]1[C@H](C)[C@@H]1C[C@@](O)(NC(=O)O1)[C@H](OC)/C=C/C=C(\C)C2 [Compound 77] for me? 8.28

Continuing:
Can you look up the measured pEC50 of CCC(C)C(C(CC(=O)N1CCCC1C(OC)C(C)C(=O)NC(C)C(O)c1ccccc1)OC)N(C)C(=O)C(NC(=O)C(C(C)C)N(C)C(=O)OCc1ccc(NC(=O)[C@H](CCCNC(N)=O)NC(=O)[C@@H](NC(=O)CNC(=O)[C@H](Cc2ccccc2)NC(=O)CNC(=O)CNC(=O)CCOCCC(=O)NCCNc2ncc(-c3cc(C)cc(F)c3)c(N3CCC(N)CC3)c2-c2nc3ccc(Cl)cc3[nH]2)C(C)C)cc1)C(C)C (stereo in doubt) [Compound 30] for me? 8.15

Can you look up the measured pEC50 of CC[C@H](C)[C@@H]([C@@H](CC(=O)N1CCC[C@H]1[C@H](OC)[C@@H](C)C(=O)N[C@H](C)[C@@H](O)c1ccccc1)OC)N(C)C(=O)[C@@H](NC(=O)[C@H](C(C)C)N(C)C(=O)OCc1ccc(NC(=O)[C@H](CCCNC(N)=O)NC(=O)[C@@H](NC(=O)CCOCCOCCC(=O)NCCNc2ncc(-c3cc(C)cc(F)c3)c(N3CCC(N)CC3)c2-c2nc3ccc(Cl)cc3[nH]2)C(C)C)c(O[C@@H]2O[C@H](C(=O)O)[C@@H](O)[C@H](O)[C@H]2O)c1)C(C)C [Compound 137] for me? 8.34

Can you look up the measured pEC50 of CC[C@H](C)[C@@H]([C@@H](CC(=O)N1CCC[C@H]1[C@H](OC)[C@@H](C)C(=O)N[C@H](C)[C@@H](O)c1ccccc1)OC)N(C)C(=O)[C@@H](NC(=O)[C@H](C(C)C)N(C)C(=O)OCc1ccc(NC(=O)[C@H](CCCNC(N)=O)NC(=O)[C@@H](NC(=O)[C@H](CCC(=O)O)NC(=O)[C@H](CCC(=O)O)NC(=O)CCOCCOCCOCCOCCC(=O)NCCNc2ncc(-c3cc(C)cc(F)c3)c(N3CCC(N)CC3)c2-c2nc3ccc(Cl)cc3[nH]2)C(C)C)cc1)C(C)C [Compound 110] (X4-EEV[Cit][PABC][NMeV]V[Dil][Dolaproine]-X2) for me? 7.89

Entry source: patent US12134610B2
